- System: Caco-2
- Protocol Summary: cell viability relative to DMSO; higher = less toxic
- Condition Info: 72 h; 10000 nM
Quantity Kind: cell viability

# count of solved cases: 2
Compound	Value Observed
C[C@]12CCC(=O)C=C1CC[C@@H]1[C@@H]2[C@@H](O)C[C@@]2(C)[C@H]1CC[C@]2(O)C(=O)COC(=O)CCC(=O)O [hydrocortisone-hemisuccinate]	111%
CN/C(=N\S(=O)(=O)c1ccc(Cl)cc1)N1C[C@H](c2ccccc2)C(c2ccc(Cl)cc2)=N1 (racemic) [SLV-319-(+/-)]	83.1%

Now, please, on to the next compound.
Query: # input compound: O=C(Nc1cccc2c(=O)cc(-c3nnn[nH]3)oc12)c1ccc(OCCCCc2ccccc2)cc1 ; wanted: its cell viability
Reply: 86.7%

* * *

- Test system: Vero E6
- Protocol Summary: cell viability relative to DMSO; higher = less toxic
- Condition Info: 72 h; 1 nM
Quantity Kind: cell viability (%)
The reply should be a number in %, with the unit left off.

Compound	Value Observed
Cc1cc(C)cc(OCC2CNC(=O)O2)c1 (stereo not given) [metaxalone]	101
Nc1nc(=O)c2nc(CNc3ccc(C(=O)N[C@@H](CCC(=O)O)C(=O)O)cc3)cnc2[nH]1 [folic-acid]	99.9
CC(C)(C)c1cc(C=C(C#N)C#N)cc(Br)c1O [AG-1024]	102
CCn1cnc(C(=O)NC)c1C(=O)NC [ethimizol]	96.4

# next compound below
Query: Form: Entry = CNC(=O)c1cc(Oc2ccc(NC(=O)Nc3cc(C(C)(C)C)nn3-c3ccc4ncccc4c3)c(F)c2)ccn1 [rebastinib] | System = Vero E6 | cell viability = ____
Reply: 98.2

* * *

- System: A549-ACE2 infected with SARS-CoV-2
- Protocol Summary: morphology score (similarity to uninfected cells); higher = more like uninfected cells
- Condition Info: 0.3 µM; 24 h
Class t: morphology score at least 0.1. Class f: morphology score below 0.1.

Compound	Assigned Class
OCc1cc(C(O)CNCCCCCCOCCCCc2ccccc2)ccc1O (stereo unspecified)	f
COc1ccc(-c2cc3nccn3c(Nc3ncccc3C(N)=O)n2)cc1OC	t
CC(=O)OC[C@H]1O[C@@H]([S-])[C@H](OC(C)=O)[C@@H](OC(C)=O)[C@@H]1OC(C)=O.CCP(CC)CC.[Au+]	t
O=C(CCCN1CCC2(CC1)C(=O)NCN2c1ccccc1)c1ccc(F)cc1	f
Cc1ccc(NC(=O)c2ccc(CN3CCN(C)CC3)cc2)cc1Nc1nccc(-c2cccnc2)n1	t

Now consider the entry below.
Query: Please indicate if the recorded morphology score for O=C(c1ccc(OCCN2CCCCC2)cc1)c1c(-c2ccc(O)cc2)sc2cc(O)ccc12 meets or exceeds 0.1.
Reply: t

* * *

- Test system: Calu-3
- Protocol Summary: cell viability relative to DMSO; higher = less toxic
- Condition Info: 72 h; 1000 nM
Quantity Kind: cell viability (%)
The reply should be a number in %, with the unit left off.

Compound	Readout Unit	cell viability
CC(=O)[C@H]1CC[C@H]2[C@@H]3CC=C4C[C@@H](OC(=O)CCC(=O)O)CC[C@]4(C)[C@H]3CC[C@]12C [pregnenolone-succinate]	%	94.1
N#Cc1ccc(C2CCCc3cncn32)cc1 (configuration not stated)	%	98
COc1ccccc1N1CCN(CC(O)COc2cc(OC)c(OC)c(OC)c2)CC1 (configuration not stated)	%	98.1
CC(=O)[C@]1(O)Cc2c(O)c3c(c(O)c2[C@@H](O[C@H]2C[C@H](N)[C@H](O)[C@H](C)O2)C1)C(=O)c1ccccc1C3=O	%	27.7
FC(F)(F)c1cccc(C2=CCN(CCc3ccc4ccccc4c3)CC2)c1	%	109

Query: // query cell viability value for entry C=C[C@@]1(C)CC(=O)[C@]2(O)[C@@]3(C)[C@@H](O)CCC(C)(C)[C@@H]3[C@H](O)[C@H](OC(C)=O)[C@@]2(C)O1
Reply: 106

Query: // lookup cell viability for CCNC(=O)c1noc(-c2cc(C(C)C)c(O)cc2O)c1-c1ccc(CN2CCOCC2)cc1
Reply: 37.3

* * *

- System: HepG2
- Protocol Summary: cell viability relative to DMSO; higher = less toxic
- Condition Info: 72 h; 1 nM
Quantity Kind: cell viability (%)
# unit: % | format: bare number

Query: cell viability lookup needed for CCCCCCCCCCCC(=O)O [lauric-acid] , thanks.
Reply: 105

Query: Please report the recorded cell viability for CN1CCC(c2c[nH]c3ccc(O)cc23)CC1 .
Reply: 98.5

Query: // cell viability lookup, key: O=C(Nc1ccccc1Br)N[C@@H]1CCN(c2ccc(C(F)(F)F)cn2)C1
Reply: 103

Query: Requested field: cell viability. Item: CCCCCCCCCC(=O)OC1(c2ccc(Cl)cc2)CCN(CCCC(=O)c2ccc(F)cc2)CC1 [haloperidol-decanoate]
Reply: 112

Query: Which measured cell viability value corresponds to CNc1cc2c(Nc3cccc(Br)c3)ncnc2cn1 ?
Reply: 93.8

Query: Tell me the measured cell viability of COc1ccc(C2CNC(=O)NC2)cc1O[C@H]1C[C@@H]2CC[C@H]1C2 [atizoram] , please.
Reply: 99

Query: Value lookup for cell viability; key = C=CC1=C(C)c2cc3[nH]c(cc4nc(cc5[nH]c(cc1n2)c(C)c5CCC(=O)O)C(CCC(=O)O)=C4C)c(C)c3C=C [protoporphyrin-IX]
Reply: 102

Query: Fill in: cell viability of C=CC[C@]1(O)CC[C@H]2[C@@H]3CCC4=CC(=O)CCC4=C3C=C[C@@]21C [altrenogest] is ___
Reply: 107

* * *

- Test system: HepG2
- Protocol Summary: cell viability relative to DMSO; higher = less toxic
- Condition Info: 72 h; 10 nM
Quantity Kind: cell viability (%)
Use % as the unit, but write only the number.

Here's what some known entries look like.
Compound	System Tested	Quantity Kind	Value Observed
CCC(=O)[C@@]1(C)[C@H](C)C[C@H]2[C@@H]3CCC4=CC(=O)C=C[C@]4(C)[C@H]3[C@@H](O)C[C@@]21C [rimexolone]	HepG2	cell viability	102
O=c1sn(-c2cccc3ccccc23)c(=O)n1Cc1ccccc1	HepG2	cell viability	106
CN1C[C@@H]2CN(c3ccc(-c4ccccc4)nn3)C[C@@H]2C1	HepG2	cell viability	97.3
COc1ccc(-c2csc(NC(=O)[C@H]3CCCCN3S(=O)(=O)c3ccc(C)cc3)n2)cc1	HepG2	cell viability	99.7

Query: Name the reported cell viability value associated with the compound Cc1ccc(=O)n(-c2ccccc2)c1
Reply: 100

Query: Field request: cell viability | item: C[C@@H](C(=O)O)c1ccc(-c2ccccc2)c(F)c1 (racemic) [flurbiprofen-(+/-)]
Reply: 101

* * *

- System: HepG2
- Protocol Summary: drug sensitivity score (DSS) for viability; higher = more toxic; extreme values may be limits of the assay
- Condition Info: 72 h
Item-by-item account of drug sensitivity score
Format: numeric value only, no unit, no commentary.

Molecule	drug sensitivity score
N=C(N)NC(=N)NCCc1ccccc1	0.3
NCCc1cc[nH]n1	0
COc1cc(S(C)(=O)=O)ccc1Nc1nc2ccc(-c3ccc(NC(=O)[C@H](C)c4ccc(F)cc4)cc3)cn2n1	7.9
C=CCN1CC[C@]2(C)c3cc(O)ccc3C[C@H]1[C@H]2C	0
O=C(CCCN1CCC2(CC1)C(=O)N(Cc1cccc(F)c1)CN2c1ccccc1)c1ccc(F)cc1	2.7
Cc1ccc(-c2ccc(F)cc2COc2ccc(CCC(=O)O)cc2)cc1	0
CN1C[C@@H]2CN(c3ccc(-c4ccccc4)nn3)C[C@@H]2C1	0
NC(Cc1ccc(I)cc1)C(=O)O (stereo in doubt)	0

Query: Value wanted: drug sensitivity score (HepG2) of entry O=[N+]([O-])c1cc(O)c(O)c([N+](=O)[O-])c1
Reply: 0

Query: # query: drug sensitivity score | item N[C@@H](Cc1cc(CP(=O)(O)O)cc(-c2ccccc2Cl)c1)C(=O)O | system: HepG2
Reply: 0

Query: Please provide the recorded drug sensitivity score for O=C(c1cccc(Br)c1)N1CCC(N2CCCC2)CC1 , tested on HepG2.
Reply: 0

Query: Query drug sensitivity score on HepG2 for O=C(NCc1ccc(OC(F)(F)F)cc1)C1c2ccccc2C(=O)N1C1CCOCC1 (configuration not stated)
Reply: 0

Query: Lab request: please report drug sensitivity score under test system HepG2 for Cn1c(=O)c2c(ncn2C)n(C)c1=O
Reply: 0

Query: HepG2 / drug sensitivity score / CCC[C@H](N[C@@H](C)C(=O)N1[C@H](C(=O)O)C[C@@H]2CCCC[C@@H]21)C(=O)OCC : value?
Reply: 0

Query: Short answer please: drug sensitivity score, HepG2, entry CCN(CC)C(=S)S [ditiocarb-sodium-trihydrate]
Reply: 3

Query: Which measured drug sensitivity score belongs to COc1cc2c(NC3CCN(CC4CCCCC4)CC3)nc(N3CCCN(C(C)C)CC3)nc2cc1OCCCN1CCCCC1 , tested on HepG2?
Reply: 6.1

Query: Fill in the recorded drug sensitivity score for this molecule, with HepG2 as test system: COc1ccc(Oc2c(Cl)cnn(C3c4ccccc4-c4ccccc43)c2=O)cc1
Reply: 0

Source listed as the supplement of paper PMC13380429.
